Recorded measurements of interaction score, one per entry
Molecular target: T1, O11
T1 chain: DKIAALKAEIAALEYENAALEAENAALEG
Test: two-hybrid library CCNG1;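 further: natural log of median RNA to DNA barcode read ratio; higher means stronger binding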
Measured Property: interaction score

Binder	Meas Value
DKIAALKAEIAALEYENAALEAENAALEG [O11]	-2.47
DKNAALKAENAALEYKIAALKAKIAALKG [O10]	-1.61
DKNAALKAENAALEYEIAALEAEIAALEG [O1]	-2.38
DEIAQLKQEIAELEQKNAELKWEIAQLKQ [4H570-bA]	-0.882
